Experiment: Phase 1 study: plasma pharmacokinetics in patients
Format: in vivo, human
Conditions: human, plasma, po, 100 mg, patient plasma, oral (1-g) 100 mg QD, C1D1, n = 3, mean; read-out: AUC0-24 h
Excerpt: All patients received compound (1-g) orally. The time of day for administration of compound (1-g) was consistent. Compound (1-g) was taken whole with liquid(s) and with food in the morning. The patient avoided taking other medications at the same time as compound (1-g). […] If vomiting occurred after taking the study treatment, the patient was instructed not to retake the dose and record the dose recorded as taken in the dosing diary, noting that the patient vomited and marking the time of vomiting. […]
property-name: AUC(0-t) (ng·h/mL)

1) O=C1CC[C@H](N2Cc3cc(N4CCN(CC5CCN(c6ccc([C@@H]7c8ccc(O)cc8OC[C@@H]7c7ccccc7)cc6F)CC5)CC4)ccc3C2=O)C(=O)N1 | 7570

* * *

Experiment: Phase 1 study: plasma pharmacokinetics in patients
Type: in vivo, human
Conditions: human, plasma, po, 100 mg, patient plasma, oral (1-g) 100 mg QD, C1D15, n = 3, mean; read-out: T½ (converted)
property-name: half-life (h)

1. O=C1CC[C@H](N2Cc3cc(N4CCN(CC5CCN(c6ccc([C@@H]7c8ccc(O)cc8OC[C@@H]7c7ccccc7)cc6F)CC5)CC4)ccc3C2=O)C(=O)N1 | 32.1

* * *

Test: Phase 1 study: plasma pharmacokinetics in patients
Assay type: in vivo, human
Conditions: human, plasma, po, 400 mg, patient plasma, oral (1-g) 400 mg QD, C1D1, n = 6, mean; read-out: AUC0-24 h
property-name: AUC(0-t) (ng·h/mL)

1) O=C1CC[C@H](N2Cc3cc(N4CCN(CC5CCN(c6ccc([C@@H]7c8ccc(O)cc8OC[C@@H]7c7ccccc7)cc6F)CC5)CC4)ccc3C2=O)C(=O)N1 | 18800

* * *

Experiment: Phase 1 study: plasma pharmacokinetics in patients
Format: in vivo, human
Conditions: human, plasma, po, 400 mg, patient plasma, oral (1-g) 400 mg QD, C1D15, n = 5, mean; read-out: AUC0-24 h
property-name: AUC(0-t) (ng·h/mL)

1. O=C1CC[C@H](N2Cc3cc(N4CCN(CC5CCN(c6ccc([C@@H]7c8ccc(O)cc8OC[C@@H]7c7ccccc7)cc6F)CC5)CC4)ccc3C2=O)C(=O)N1 | 45900

* * *

Test: Phase 1 study: plasma pharmacokinetics in patients
Assay type: in vivo, human
Details: human, plasma, po, 100 mg, patient plasma, oral (1-g) 100 mg QD, C1D15 (steady state), n = 3, mean; read-out: AUC0-24 h
property-name: AUC(0-t) (ng·h/mL)

1) O=C1CC[C@H](N2Cc3cc(N4CCN(CC5CCN(c6ccc([C@@H]7c8ccc(O)cc8OC[C@@H]7c7ccccc7)cc6F)CC5)CC4)ccc3C2=O)C(=O)N1 [compound (1-g)] | 19500

* * *

Assay: Phase 1 study: plasma pharmacokinetics in patients
Format: in vivo, human
Settings: human, plasma, po, 100 mg, patient plasma, oral (1-g) 100 mg QD, C1D1, n = 3, *median value; read-out: Tmax*
property-name: Tmax (h)

1) O=C1CC[C@H](N2Cc3cc(N4CCN(CC5CCN(c6ccc([C@@H]7c8ccc(O)cc8OC[C@@H]7c7ccccc7)cc6F)CC5)CC4)ccc3C2=O)C(=O)N1 | 12.7
